Give Muscle for every item shown.
Tested on: PC-3 PIP/flu tumor-bearing mice
Assay: Biodistribution studies in PC-3 PIP/flu tumor-bearing mice
Details: 4 h p.i.
Write it as a number; the unit % IA/g goes unstated.

Q: Kindly indicate its recorded Muscle. Item: Cc1ccc(CCCC(=O)NC(CC(=O)NC(CC(=O)NC(CC(=O)NC(CCCCNC(=O)CN2CCN(CC(=O)O)CCN(CC(=O)O)CCN(CC(=O)O)CC2)C(=O)NCC2CCC(C(=O)NC(Cc3ccc4ccccc4c3)C(=O)NCCCCC(NC(=O)NC(CCC(=O)O)C(=O)O)C(=O)O)CC2)C(=O)O)C(=O)O)C(=O)O)cc1 (stereo not drawn) [^177Lu-PSMA-ALB-08, metal not drawn]
Ans: 0.06

Q: Answer with reported Muscle of O=C(O)CCC(NC(=O)NC(CCCCNC(=O)C(Cc1ccc2ccccc2c1)NC(=O)C1CCC(CNC(=O)C(CCCCNC(=O)CN2CCN(CC(=O)O)CCN(CC(=O)O)CCN(CC(=O)O)CC2)NC(=O)CC(NC(=O)CC(NC(=O)CCCc2ccc(I)cc2)C(=O)O)C(=O)O)CC1)C(=O)O)C(=O)O (stereo not drawn) [^177Lu-PSMA-ALB-05, metal not drawn]
Ans: 1.30

Q: # return recorded Muscle for entry O=C(O)CCC(NC(=O)NC(CCCCNC(=O)C(Cc1ccc2ccccc2c1)NC(=O)C1CCC(CNC(=O)C(CCCCNC(=O)CCCc2ccc(I)cc2)NC(=O)CN2CCN(CC(=O)O)CCN(CC(=O)O)CCN(CC(=O)O)CC2)CC1)C(=O)O)C(=O)O (stereo not drawn) [^177Lu-PSMA-ALB-03, metal not drawn]
Ans: 2.04

Just for reference, patent US11629201B2 is where these values come from.
